# assay details: Confirmation and Secondary Assay for Modulators of Hemoglobin Beta Chain Splicing at IVS2 654 locus (AID 910);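 further: HeLa cells stably carrying EGFP split by mutant beta-globin IVS2-654 intron; per-well total GFP intensity by laser scanning cytometry after 2-day treatment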
# cond: HeLa EGFP-654 splicing reporter, GFP fluorescence, 48 h; series mostly up to 46.1 µM
Activity calls are given as the source filed them. The call rests on the fitted dose curve; in most records, active means well fitted activation curve with a large enough effect; inconclusive means small, poorly fitted or top-dose-only effect; inactive means flat fitted curve, though single readings scatter.
Parameter call: string, one of t for active, f for inactive

(Q) Each compound tested received a call. Report the one for Cn1c(=O)c2c(ncn2C)n(C)c1=O .
(A) f

(Q) Each compound tested received a call. Report the one for CC12CC3CC(C)(C1)CC(N)(C3)C2 .
(A) f

(Q) Each compound tested received a call. Report the one for CN1CCC(=C2c3ccccc3CC(=O)c3sccc32)CC1 .
(A) f

(Q) Each compound tested received a call. Report the one for NC(=O)NO .
(A) f

(Q) Each compound tested received a call. Report the one for OCCN1CCN(CCCN2c3ccccc3Sc3ccc(C(F)(F)F)cc32)CC1 .
(A) f

(Q) Each compound tested received a call. Report the one for O=C(c1ccc(F)cc1)C1CCN(CCn2c(=O)[nH]c3ccccc3c2=O)CC1 .
(A) f

(Q) Each compound tested received a call. Report the one for COc1ccc2[nH]cc(CCNC(C)=O)c2c1 .
(A) f

(Q) Each compound tested received a call. Report the one for COc1ccc2c(c1)c(CC(=O)O)c(C)n2C(=O)c1ccc(Cl)cc1 .
(A) f

(Q) Each compound tested received a call. Report the one for Nc1c2c(nc3ccccc13)CCCC2 .
(A) f

(Q) Each compound tested received a call. Report the one for CCC1(c2ccccc2)C(=O)NCNC1=O .
(A) f

(Q) Each compound tested received a call. Report the one for CC[C@@]1(O)C(=O)OCc2c1cc1n(c2=O)Cc2cc3c(CN(C)C)c(O)ccc3nc2-1 .
(A) t

(Q) Each compound tested received a call. Report the one for Clc1ccc(C(c2ccccc2Cl)C(Cl)Cl)cc1 (configuration not stated) .
(A) f

* * *

# assay details: qHTS drug screen for cell cycle checkpoint inhibitors in PARPi-resistant BRCA-mutant ovarian cancer cell lines. (AID 1963452)
# cond: PEO1/OlaR viability, CellTiter-Glo luminescence, 96 h; measured here: PEO4 Z-AUC; stronger effect = lower value
# note: boundary value 0.5 maps to NOT MET; Z-AUC below it maps to MET

(Q) In the record for O=c1c(O)c(-c2ccc(O)c(O)c2)oc2cc(O)cc(O)c12 , is Z-AUC less than 0.5?
(A) MET

(Q) In the record for Nc1nnc(-c2cccc(Cl)c2Cl)c(N)n1 , is Z-AUC less than 0.5?
(A) MET

(Q) In the record for Clc1ccccc1C(c1ccccc1)(c1ccccc1)n1ccnc1 , is Z-AUC less than 0.5?
(A) MET

(Q) In the record for C[C@@H]1CC(=O)NN=C1c1ccc(NN=C(C#N)C#N)cc1 , is Z-AUC less than 0.5?
(A) MET

(Q) In the record for CN(C)CCCN1c2ccccc2CCc2ccc(Cl)cc21 , is Z-AUC less than 0.5?
(A) MET

(Q) In the record for Cn1ccc2cc3c(cc21)CCN3C(=O)Nc1cccnc1 , is Z-AUC less than 0.5?
(A) MET

(Q) In the record for CCCNCC(O)COc1ccccc1C(=O)CCc1ccccc1 (configuration not stated) , is Z-AUC less than 0.5?
(A) MET

(Q) In the record for CC(C)Cc1ccc(C(C)C(=O)O)cc1 (configuration not stated) , is Z-AUC less than 0.5?
(A) NOT MET

(Q) In the record for NS(=O)(=O)c1cc2c(cc1Cl)NCNS2(=O)=O , is Z-AUC less than 0.5?
(A) NOT MET

(Q) In the record for Clc1ccc(C(c2ccccc2Cl)C(Cl)Cl)cc1 (configuration not stated) , is Z-AUC less than 0.5?
(A) MET

(Q) In the record for CCOC(=O)C(C)(C)Oc1ccc(Cl)cc1 , is Z-AUC less than 0.5?
(A) NOT MET
